Data credit: patent US20210347873A1

Listing of entries alongside the reported OD450 nm.
Target: T1, biotinylated hBLyS-ECD (human, UniProt Q9Y275 134-285, biotinylated with Biotin-X-X-NHS (molar ratio 7:1); sites not stated)
T1 construct: also called biotinylated immunogen; biotinylated hBLvS-ECD
T1 sequence (Q9Y275 134-285): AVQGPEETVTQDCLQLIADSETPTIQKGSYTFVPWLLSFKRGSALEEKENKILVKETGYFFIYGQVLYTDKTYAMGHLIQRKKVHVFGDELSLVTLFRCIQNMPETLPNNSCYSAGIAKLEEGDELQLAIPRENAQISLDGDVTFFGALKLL
Experiment: BAFF R-coated ELISA, biotinylated hBLyS-ECD bound in presence of antibody 4 nM
Please give a number only; it is taken to be in OD450 nm.

These recorded examples may help you get a feel for the data.
{"columns": ["Binder", "OD450 nm (OD450 nm)"],
 "data": [
  ["h8E7D9C7F5-1 (antibody, V domains shown, Humanized antibody; also called humanized BLyS antibody h8E7D9C7F5 variant 1 (VH.1 / Vk.1)) VH: EVQLVQSGAEVKKPGASVKVSCKASGYTFTSYGISWVRQAPGQGLEWMGEIYPRSGNTYYNEKFKGRVTMTTDTSTSTAYMELRSLRSDDTAVYYCARSGPITTLVATDYGMDYWGQGTTVTVSS VL: DIVMTQSPDSLAVSLGERATINCRASKSVSTSSYSYMHWYQQKPGQPPKLLIKFASNLESGVPDRFSGSGSGTDFTLTISSLQAEDVAVYYCQHSREFPYTFGGGTKVEIK", 1.11],
  ["h97A3C2H4-9 (antibody, V domains shown, Humanized antibody; VH3-7/JH6 CDR-grafted with A93T, G44R; also called humanized BLyS antibody h97A3C2H4 variant 9 (VH.1b / Vk.1d)) VH: EVQLVESGGGLVQPGGSLRLSCAASGFTFSTYTMSWVRQAPGKRLEWVAYISYGGGSTSYPDTVKGRFTISRDNAKNSLYLQMNSLRAEDTAVYYCTRHVTVVENSMDYWGQGTTVTVSS VL: DILLTQSPDFQSVTPKEKVTITCRASQSIGTSIHWYQQKTDQSPKLLIKYVSESFSGTPSRFSGSGSGTDFTLTINSLEAEDAATYYCQQTHSWPWTFGGGTKVEIK", 1.13]
]}

Lookup: Supply recorded OD450 nm for c8E7D9C7F5 (antibody, V domains shown, also called chimeric antibody c8E7D9C7F5) VH: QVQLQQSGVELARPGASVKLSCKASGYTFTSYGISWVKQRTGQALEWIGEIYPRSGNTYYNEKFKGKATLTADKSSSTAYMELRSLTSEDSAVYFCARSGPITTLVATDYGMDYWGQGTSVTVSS VL: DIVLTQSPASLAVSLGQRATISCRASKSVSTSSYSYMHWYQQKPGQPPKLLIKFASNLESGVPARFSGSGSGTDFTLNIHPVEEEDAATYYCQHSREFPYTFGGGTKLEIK here.
Found: 1.04

Lookup: Supply recorded OD450 nm for c97A3C2H4 (antibody, V domains shown, also called chimeric antibody c97A3C2H4) VH: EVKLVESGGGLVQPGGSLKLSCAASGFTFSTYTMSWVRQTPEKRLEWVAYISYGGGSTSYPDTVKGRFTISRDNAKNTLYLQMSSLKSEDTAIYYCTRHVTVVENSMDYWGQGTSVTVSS VL: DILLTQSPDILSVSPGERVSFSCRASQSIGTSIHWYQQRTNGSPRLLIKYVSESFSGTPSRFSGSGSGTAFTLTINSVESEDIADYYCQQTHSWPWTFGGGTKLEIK here.
Found: 1.07
